Measured Ki values are reported for all entries that follow.
Target: Metabotropic glutamate receptor 2 (Rattus norvegicus, UniProt P31421)
Sequence (P31421 whole entry): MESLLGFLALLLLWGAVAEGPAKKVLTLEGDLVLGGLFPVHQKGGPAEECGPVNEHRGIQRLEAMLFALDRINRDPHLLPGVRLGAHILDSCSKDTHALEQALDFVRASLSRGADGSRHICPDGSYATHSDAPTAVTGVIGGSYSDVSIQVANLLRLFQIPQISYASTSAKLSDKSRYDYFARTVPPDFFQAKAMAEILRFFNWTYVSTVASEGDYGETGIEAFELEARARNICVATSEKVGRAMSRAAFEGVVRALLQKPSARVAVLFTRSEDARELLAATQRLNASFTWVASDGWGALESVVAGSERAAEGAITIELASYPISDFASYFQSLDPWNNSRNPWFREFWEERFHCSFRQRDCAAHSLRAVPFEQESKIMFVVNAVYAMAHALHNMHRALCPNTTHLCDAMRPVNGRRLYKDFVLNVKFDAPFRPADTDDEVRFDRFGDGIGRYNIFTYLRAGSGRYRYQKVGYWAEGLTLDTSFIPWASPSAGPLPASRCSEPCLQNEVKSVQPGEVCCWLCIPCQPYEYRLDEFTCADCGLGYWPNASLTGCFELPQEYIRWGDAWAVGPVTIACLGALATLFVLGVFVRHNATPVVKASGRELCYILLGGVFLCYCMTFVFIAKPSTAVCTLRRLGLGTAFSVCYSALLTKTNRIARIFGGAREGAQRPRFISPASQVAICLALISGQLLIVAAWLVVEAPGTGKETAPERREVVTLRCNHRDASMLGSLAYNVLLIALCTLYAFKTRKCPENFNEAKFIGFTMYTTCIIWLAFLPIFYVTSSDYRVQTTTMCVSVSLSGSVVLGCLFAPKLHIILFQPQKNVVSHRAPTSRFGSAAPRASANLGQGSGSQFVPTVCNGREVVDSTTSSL
Assay: Antagonist activity at rat mGluR2 receptor expressed in CHO cells assessed as effect on intracellular cAMP level
Form entry: value (µM) — number only.

In the examples that follow, each entry is paired with its recorded Ki.
NC(C(=O)O)c1cnn(O)c1Cc1ccccc1 (racemic) ... 120
NC(C(=O)O)c1cnn(O)c1CC1CCCCC1 (racemic) ... 32

Query NC(C(=O)O)c1cnn(O)c1-c1ccccc1 (racemic) yields Ki of 180

Query NC(C(=O)O)c1cnn(O)c1CCCc1ccccc1 (racemic) yields Ki of 67

###

Target: Metabotropic glutamate receptor 1 (Rattus norvegicus, UniProt P23385)
Sequence (P23385 whole entry): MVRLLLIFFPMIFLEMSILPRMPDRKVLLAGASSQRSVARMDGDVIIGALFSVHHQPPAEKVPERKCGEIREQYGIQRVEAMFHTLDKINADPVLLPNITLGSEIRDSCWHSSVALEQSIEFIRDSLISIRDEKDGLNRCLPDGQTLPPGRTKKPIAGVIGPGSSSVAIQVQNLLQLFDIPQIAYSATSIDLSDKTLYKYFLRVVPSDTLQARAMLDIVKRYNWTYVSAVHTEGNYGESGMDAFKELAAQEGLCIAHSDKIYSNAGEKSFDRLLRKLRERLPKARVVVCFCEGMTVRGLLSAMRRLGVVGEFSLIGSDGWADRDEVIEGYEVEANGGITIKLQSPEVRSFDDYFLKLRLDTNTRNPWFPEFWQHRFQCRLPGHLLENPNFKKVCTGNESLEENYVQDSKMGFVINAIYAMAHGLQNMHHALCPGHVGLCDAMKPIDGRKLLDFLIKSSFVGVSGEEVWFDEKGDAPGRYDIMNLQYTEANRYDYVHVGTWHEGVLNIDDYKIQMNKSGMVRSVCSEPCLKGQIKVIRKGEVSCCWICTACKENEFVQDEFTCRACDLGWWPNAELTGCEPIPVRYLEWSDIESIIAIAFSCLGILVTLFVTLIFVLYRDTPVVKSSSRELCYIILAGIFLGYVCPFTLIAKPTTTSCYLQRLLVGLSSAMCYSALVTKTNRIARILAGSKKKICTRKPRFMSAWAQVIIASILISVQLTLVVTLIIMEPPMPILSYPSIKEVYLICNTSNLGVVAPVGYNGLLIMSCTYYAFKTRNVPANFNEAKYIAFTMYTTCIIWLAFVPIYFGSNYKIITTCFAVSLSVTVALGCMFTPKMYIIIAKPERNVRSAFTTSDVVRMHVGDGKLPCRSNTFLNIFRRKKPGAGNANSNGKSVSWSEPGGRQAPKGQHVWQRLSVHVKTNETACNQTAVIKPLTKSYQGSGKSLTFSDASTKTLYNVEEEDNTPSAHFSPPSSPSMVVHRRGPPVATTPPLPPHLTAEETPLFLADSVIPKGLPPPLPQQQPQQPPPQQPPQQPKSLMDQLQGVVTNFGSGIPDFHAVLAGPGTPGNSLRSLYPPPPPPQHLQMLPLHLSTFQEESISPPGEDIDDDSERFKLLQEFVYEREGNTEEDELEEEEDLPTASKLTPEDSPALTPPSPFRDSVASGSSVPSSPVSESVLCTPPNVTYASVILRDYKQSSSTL
Experiment: Antagonist activity at rat mGluR1a receptor expressed in CHO cells assessed as effect on intracellular calcium level
Format: functional, cell-based
Conditions: read-out: Ki
Measured Ki values are reported for all entries that follow.
Form entry: value (µM) — number only.

NC(C(=O)O)c1cnn(O)c1CCCc1ccccc1 (racemic) ... 260

Now look at this one.
Query NC(C(=O)O)c1cnn(O)c1CCc1ccccc1 (racemic) yields Ki of 230
